Biological target: UniProt:P10635
Sequence (P10635 whole entry): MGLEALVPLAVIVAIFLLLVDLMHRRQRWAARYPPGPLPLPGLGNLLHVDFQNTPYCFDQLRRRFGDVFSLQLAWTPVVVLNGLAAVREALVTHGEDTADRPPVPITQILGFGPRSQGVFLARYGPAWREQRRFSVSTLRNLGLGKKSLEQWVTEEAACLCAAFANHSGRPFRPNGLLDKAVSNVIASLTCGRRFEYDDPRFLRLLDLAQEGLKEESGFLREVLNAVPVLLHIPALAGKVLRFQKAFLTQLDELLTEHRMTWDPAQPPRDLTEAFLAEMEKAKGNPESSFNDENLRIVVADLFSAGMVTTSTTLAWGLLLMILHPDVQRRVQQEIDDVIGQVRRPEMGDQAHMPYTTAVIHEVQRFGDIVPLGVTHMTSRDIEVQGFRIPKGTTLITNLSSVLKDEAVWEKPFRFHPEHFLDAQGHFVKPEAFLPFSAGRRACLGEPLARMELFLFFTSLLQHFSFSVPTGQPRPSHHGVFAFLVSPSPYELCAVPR
pIC50: −log10 of the molar value.

{"columns": ["COMPOUND", "pIC50"],
 "data": [
  ["CC12CC(O)C3CC1(O[C@@H]1O[C@H](CO)[C@@H](O)[C@H](O)[C@H]1O)C3(COC(=O)c1ccccc1)C(=O)O2 (stereo partly shown) [albiflorin]", 1.84]
]}
